- Tested on: Escherichia coli TOP10
- Experiment Summary: shrunken log2 fold change of peptide-encoding DNA abundance (4.5 h post-induction vs induction); higher = less antimicrobial activity (less host growth inhibition)
- Conditions Used: time post-induction: 4.5 h; library: site-saturation at positions 5, 18, 19, 20
Answer no (0) if shrunken log2 fold change is under -0.1, and yes (1) if it is -0.1 or more.

Quick check, shrunken log2 fold change >= -0.1? RRIRIRPPRLPRPRPRPFKPPRP
no (0)

Quick check, shrunken log2 fold change >= -0.1? RRIRPRPPRLPRPRPRPLFKPRP
no (0)

Quick check, shrunken log2 fold change >= -0.1? RRIRCRPPRLPRPRPRPTFSPRP
no (0)

Quick check, shrunken log2 fold change >= -0.1? RRIRMRPPRLPRPRPRPMWIPRP
no (0)

Quick check, shrunken log2 fold change >= -0.1? RRIRLRPPRLPRPRPRPVCHPRP
no (0)

---

- Tested on: Escherichia coli TOP10;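 note: peptides expressed intracellularly from a pBAD plasmid library in pooled LB shake-flask culture, induced with 0.3% L-arabinose, DNA abundance read by NGS, three biological replicates, DESeq2 with apeglm shrinkage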
- Experiment Summary: shrunken log2 fold change of peptide-encoding DNA abundance (4.5 h post-induction vs induction); higher = less antimicrobial activity (less host growth inhibition)
- Conditions Used: time post-induction: 4.5 h; library: site-saturation at positions 5, 18, 19, 20
Measured Endpoint: shrunken log2 fold change

[[record]]
chain = "RRIRVRPPRLPRPRPRPWGIPRP"
target_desc = "Escherichia coli TOP10"
result = -0.265

[[record]]
chain = "RRIRPRPPRLPRPRPRPDRLPRP"
target_desc = "Escherichia coli TOP10"
result = 0.48

[[record]]
chain = "RRIRIRPPRLPRPRPRPAYLPRP"
target_desc = "Escherichia coli TOP10"
result = -0.376

[[record]]
chain = "RRIRMRPPRLPRPRPRPDFFPRP"
target_desc = "Escherichia coli TOP10"
result = 0.29

[[record]]
chain = "RRIRYRPPRLPRPRPRPYMEPRP"
target_desc = "Escherichia coli TOP10"
result = -0.0102


Please state shrunken log2 fold change for every sequence in the list that follows.
1. RRIRCRPPRLPRPRPRPHAQPRP
2. RRIRVRPPRLPRPRPRPYAIPRP
3. RRIRARPPRLPRPRPRPTCFPRP
4. RRIRKRPPRLPRPRPRPSAIPRP

[0.0778, -0.033, 0.57, -0.00962]

Please state shrunken log2 fold change for every sequence in the list that follows.
1. RRIRVRPPRLPRPRPRPVKAPRP
2. RRIRWRPPRLPRPRPRPDIPPRP
3. RRIRNRPPRLPRPRPRPVWFPRP

[0.0603, -0.367, -0.113]

Please state shrunken log2 fold change for every sequence in the list that follows.
1. RRIRARPPRLPRPRPRPMMRPRP
2. RRIRWRPPRLPRPRPRPPGYPRP
3. RRIRRRPPRLPRPRPRPNPEPRP
4. RRIRHRPPRLPRPRPRPLFWPRP
5. RRIRTRPPRLPRPRPRPLENPRP
6. RRIRWRPPRLPRPRPRPPHCPRP
7. RRIRERPPRLPRPRPRPNMCPRP
8. RRIRYRPPRLPRPRPRPHNWPRP

1: 1.22; 2: 0.684; 3: 0.302; 4: 0.274; 5: 0.0394; 6: 0.754; 7: -0.369; 8: -0.926

Please state shrunken log2 fold change for every sequence in the list that follows.
1. RRIRMRPPRLPRPRPRPQDPPRP
2. RRIRSRPPRLPRPRPRPLEDPRP
3. RRIRARPPRLPRPRPRPVVKPRP
4. RRIRLRPPRLPRPRPRPCNRPRP

[0.786, 0.0492, 0.298, 0.214]

Please state shrunken log2 fold change for every sequence in the list that follows.
1. RRIRKRPPRLPRPRPRPAYNPRP
2. RRIRYRPPRLPRPRPRPVCMPRP
3. RRIRQRPPRLPRPRPRPRIMPRP
4. RRIRGRPPRLPRPRPRPNIIPRP
5. RRIRRRPPRLPRPRPRPINCPRP
6. RRIRIRPPRLPRPRPRPDLWPRP

[0.0771, -0.314, -0.0396, 0.0628, -0.129, 0.078]

Please state shrunken log2 fold change for every sequence in the list that follows.
1. RRIRCRPPRLPRPRPRPARCPRP
2. RRIRYRPPRLPRPRPRPQGPPRP
3. RRIRGRPPRLPRPRPRPPNTPRP
4. RRIRDRPPRLPRPRPRPWFGPRP

1: 0.477; 2: -0.0382; 3: 0.516; 4: 0.228

Please state shrunken log2 fold change for every sequence in the list that follows.
1. RRIRPRPPRLPRPRPRPAGDPRP
2. RRIRLRPPRLPRPRPRPSWPPRP
3. RRIRSRPPRLPRPRPRPSVNPRP
4. RRIRTRPPRLPRPRPRPLTRPRP

1. 0.387
2. 0.00705
3. -0.119
4. 0.252

Please state shrunken log2 fold change for every sequence in the list that follows.
1. RRIRDRPPRLPRPRPRPEVNPRP
2. RRIRARPPRLPRPRPRPTERPRP

[0.0354, 0.502]
